The reported measurements were obtained from patent US7253318B2.

Target: human MAO-A (Homo sapiens)
Construct: expressed in transfected cells; host or cells: EBNA cells (transient transfection), membrane preparation
Sequence (P21397 whole entry): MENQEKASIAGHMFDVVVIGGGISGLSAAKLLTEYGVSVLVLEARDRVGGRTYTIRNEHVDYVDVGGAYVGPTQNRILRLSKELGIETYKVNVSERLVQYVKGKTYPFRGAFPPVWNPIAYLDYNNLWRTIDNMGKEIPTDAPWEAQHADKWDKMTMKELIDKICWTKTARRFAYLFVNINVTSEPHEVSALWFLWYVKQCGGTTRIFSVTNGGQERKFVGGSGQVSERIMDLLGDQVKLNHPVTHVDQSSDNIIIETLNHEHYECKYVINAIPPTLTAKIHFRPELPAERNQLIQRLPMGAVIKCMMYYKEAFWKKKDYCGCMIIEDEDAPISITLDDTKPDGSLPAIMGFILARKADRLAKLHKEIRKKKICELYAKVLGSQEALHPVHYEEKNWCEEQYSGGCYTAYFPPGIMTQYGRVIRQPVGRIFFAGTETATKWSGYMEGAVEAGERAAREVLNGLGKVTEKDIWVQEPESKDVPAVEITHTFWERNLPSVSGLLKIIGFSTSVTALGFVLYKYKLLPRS
Assay: MAO-A enzymatic activity, spectrophotometric assay (Amplex Red, tyramine substrate) on membranes of transfected EBNA cells
Format: biochemical
Settings: membranes of EBNA cells transfected with human MAO-A cDNA, 30 min preincubation at 37° C., pH 7.4
Form field: IC50 (one value per entry).

Worked examples follow.
{"columns": ["compound", "IC50"],
 "data": [
  ["NC(=O)CCOc1ccc(OCc2cccc(F)c2)cc1", "> 10 µM"],
  ["CNC(=O)C(C)Oc1ccc(OCc2cccc(F)c2)cc1 (racemic)", "> 10 µM"],
  ["CCC(Oc1ccc(OCc2ccc(C#N)cc2)cc1)C(=O)NC (racemic)", "> 10 µM"],
  ["CNC(=O)COc1ccc(OCc2cccc(F)c2)cc1", "> 10 µM"],
  ["CNC(=O)COc1ccc(OCc2ccccc2F)cc1", "> 9 µM"],
  ["CCC(Oc1ccc(OCc2cccc(F)c2)cc1)C(=O)NC (racemic)", "> 10 µM"],
  ["CNC(=O)COc1ccc(OCc2ccc(C#N)cc2)cc1", "2.86 µM"],
  ["NC(=O)OCCc1ccc(OCc2cccc(F)c2)cc1", "> 10 µM"],
  ["CCC(Oc1ccc(OCc2cccc(Cl)c2)cc1)C(=O)NC (racemic)", "> 10 µM"],
  ["CNC(=O)COc1ccc(OCc2ccc(F)cc2)cc1", "5.4 µM"]
]}

Which IC50 value belongs to CNC(=O)COc1ccc(OCc2ccc(Cl)cc2)cc1 ?
2.44 µM

Any idea what its IC50 is? The compound is CNC(=O)C(C)Oc1ccc(OCc2cccc(Cl)c2)cc1 (single isomer, unassigned) [Example 13]
> 10 µM

Which measured IC50 value corresponds to CNC(=O)COc1ccc(OCc2ccccc2)cc1 ?
> 10 µM

====

Target: human MAO-B (Homo sapiens, UniProt P27338)
Construct: expressed in transfected cells; host or cells: EBNA cells (transient transfection), membrane preparation
Sequence (P27338 whole entry): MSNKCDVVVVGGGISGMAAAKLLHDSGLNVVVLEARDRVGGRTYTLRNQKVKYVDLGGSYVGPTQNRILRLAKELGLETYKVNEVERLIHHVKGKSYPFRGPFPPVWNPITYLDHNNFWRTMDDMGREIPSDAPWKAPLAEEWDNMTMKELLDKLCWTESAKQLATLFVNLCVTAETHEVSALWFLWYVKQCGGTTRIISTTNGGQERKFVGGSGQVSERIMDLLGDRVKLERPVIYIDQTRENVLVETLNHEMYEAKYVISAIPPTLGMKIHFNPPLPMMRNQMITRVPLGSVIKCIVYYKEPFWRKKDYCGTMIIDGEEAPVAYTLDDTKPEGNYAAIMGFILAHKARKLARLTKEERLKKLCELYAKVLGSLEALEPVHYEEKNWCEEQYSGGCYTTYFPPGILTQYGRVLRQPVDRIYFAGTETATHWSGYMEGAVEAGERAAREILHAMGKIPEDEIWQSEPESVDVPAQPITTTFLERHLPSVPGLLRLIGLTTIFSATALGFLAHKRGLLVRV
Test: MAO-B enzymatic activity, spectrophotometric assay (Amplex Red, tyramine substrate) on membranes of transfected EBNA cells
Type: biochemical
Settings: membranes of EBNA cells transfected with human MAO-B cDNA, 30 min preincubation at 37° C., pH 7.4
experimental-readout: IC50 (µM)

Example results:
{"columns": ["compound", "IC50 [µM]"],
 "data": [
  ["CNC(=O)C(C)Oc1ccc(OCc2cccc(F)c2)cc1 (racemic)", 0.031],
  ["CCC(Oc1ccc(OCc2ccc(C#N)cc2)cc1)C(=O)NC (racemic)", 0.074],
  ["CNC(=O)COc1ccc(OCc2ccccc2F)cc1", 0.081],
  ["CNC(=O)COc1ccc(OCc2cccc(F)c2)cc1", 0.021],
  ["CNC(=O)COc1ccc(OCc2ccc(Cl)cc2)cc1", 0.012]
]}

I = CNC(=O)COc1ccc(OCc2ccc(F)cc2)cc1
II = NC(=O)COCc1ccc(OCc2cccc(F)c2)cc1
Return label of the item with the larger IC50. Candidates: I , II . I would appreciate it if you answered with the label of your choice.
II
